Parameter viability, T/C: see the listing below.
Tested on: KRAS-mutant PDC complex spheroid viability;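 also: viability read after seven days of compound exposure; 100% = DMSO vehicle-treated spheroids so lower means less viable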
Assay: Anticancer human tumor 186277-243-T-J2-PDC patient-derived colon adenocarcinoma cell line growth inhibition [KRAS2]
Details: second compound 0.316 µM; first compound 0.0316 µM; hits give low values
Express the result in % but write the number alone.

compound	target_of_assay	viability, T/C (%)
Cn1ncnc1[C@H]1c2n[nH]c(=O)c3cc(F)cc(c23)N[C@@H]1c1ccc(F)cc1 + C=CC(=O)N1CCN(c2nc(OCC3CCCN3C)nc3c2CCN(c2cccc4cccc(C)c24)C3)CC1CC#N	KRAS-mutant PDC complex spheroid viability	90.1
CCNC(=O)CC1N=C(c2ccc(Cl)cc2)c2cc(OC)ccc2-n2c(C)nnc21 (stereo unspecified) + CNCc1ccccc1-c1csc(C(C)Nc2nc(C)nc3cc(OC)c(OC)cc23)c1	KRAS-mutant PDC complex spheroid viability	106
CCNC(=O)CC1N=C(c2ccc(Cl)cc2)c2cc(OC)ccc2-n2c(C)nnc21 (stereo unspecified) + C=CC(=O)N1CCN(c2nc(=O)n(-c3c(C)ccnc3C(C)C)c3nc(-c4c(O)cccc4F)c(F)cc23)C(C)C1	KRAS-mutant PDC complex spheroid viability	103
CC(C)NCC(C(=O)N1CCN(c2ncnc3c2C(C)CC3O)CC1)c1ccc(Cl)cc1 (stereo unspecified) + CNCc1ccccc1-c1csc(C(C)Nc2nc(C)nc3cc(OC)c(OC)cc23)c1	KRAS-mutant PDC complex spheroid viability	121
CC(C)n1nc(-c2ccc3oc(N)nc3c2)c2c(N)ncnc21 + C=CC(=O)N1CCN(c2nc(OCC3CCCN3C)nc3c2CCN(c2cccc4cccc(C)c24)C3)CC1CC#N	KRAS-mutant PDC complex spheroid viability	27
COc1cc2nccc(Oc3ccc(NC(=O)C4(C(=O)Nc5ccc(F)cc5)CC4)cc3)c2cc1OC + C=CC(=O)N1CCN(c2nc(=O)n(-c3c(C)ccnc3C(C)C)c3nc(-c4c(O)cccc4F)c(F)cc23)C(C)C1	KRAS-mutant PDC complex spheroid viability	93

Now let's try a different one.
Entry CC(C)n1nc(-c2ccc3oc(N)nc3c2)c2c(N)ncnc21 + CC1OCC2(CCN(c3cnc(Sc4ccnc(N)c4Cl)c(N)n3)CC2)C1N ; viability, T/C = 30.6
